# ASSAY: Cytotoxicity against african green monkey Vero cells at 100 uM after 3 days
# Type: cell-based
# CONDITIONS_USED: chlorocebus sabaeus, read-out: INH

- COMPOUND: "COc1ccc(-c2cc(=O)c3c(O)cc(O)cc3o2)cc1-c1c(O)cc2oc(-c3ccc(O)cc3)cc(=O)c2c1O"
  READOUT_UNITS: "%"
  cytotoxicity at 72 h, 100 µM: -6.6
- COMPOUND: "COc1cc(O)c2c(=O)cc(-c3ccc(OC)c(-c4c(O)cc5c(c4O)C(=O)C[C@H](c4ccc(O)cc4)O5)c3)oc2c1"
  READOUT_UNITS: "%"
  cytotoxicity at 72 h, 100 µM: 26.8
